Entry source: patent US20230416329A1

Target: α-chymotrypsin (Bos taurus, UniProt P00766)
Assay: Chymotrypsin inhibitory activity of peptides (AAPFpNA hydrolysis; IC50, Ki, residual activity)
Format: biochemical
Conditions: peptide 1 μM
Bridge positions count the residues as written; N and C are the ends. Peptide text beside a SMILES is read from it.
Measured Property: Residual activity of chymotrypsin (%)
One number for each entry, in %.

For CC[C@H](C)[C@@H]1NC(=O)[C@H](CO)NC(=O)[C@H](Cc2ccccc2)NC(=O)[C@H]([C@@H](C)O)NC(=O)CNC(=O)[C@H](Cc2ccccc2)NC(=O)CNC(=O)[C@@H](N)CSSC[C@@H](C(=O)N[C@@H](Cc2ccc(O)cc2)C(=O)NCC(=O)O)NC(=O)[C@H](CCC(N)=O)NC(=O)[C@@H]2CCCN2C(=O)[C@@H]2CCCN2C1=O [CH7] (H-CGFGTFSIPPQCYG-OH; disulfide 1-12; N-terminus and C-terminus assumed) the compound record lists Residual activity of chymotrypsin as 101.7
